B1: tRNA (parent)
chain: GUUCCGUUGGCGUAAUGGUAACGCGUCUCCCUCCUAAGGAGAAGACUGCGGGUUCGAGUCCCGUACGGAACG

Variants of: B1
Assay: yeast fitness relative to wild type (ratio to wild type); higher = fitter; tRNA-Arg(CCU), competitive growth, 37 C, YPD
Fewer inactive variants are shown than the library holds.
property_label: yeast fitness
No unit in the answer, please; the number alone is enough.

**Query** Fill in: yeast fitness of GUUCCGUUCGCGUAAUGGUCACGCGUCUCCCUCCUAAGGAGAAGACUGCGGGUUCGAGUCCCGUACGGAACG is ___
**Result** 0.626

**Query** Now consider GUUCCGUUGGCGUAAUGGUAACGCGUCUCCCUCAUAAAGAGAAGACUGCGGGUUCGAGUCCCGUACGGAACG .
**Result** 0.699

**Query** Now consider GUUCCGUUGCCGUAAUGGUAACGCCCCUCCCUCCUAAGGAGAAGACUGCGGGUUCGAGUCCCGUACGGAACG .
**Result** 0.526

**Query** Now consider GUUCCGUUGGCCUAAUGGUAACGCGUCUCCCUCCUAAGGAGAAGACUGCGGGUUCGAGUCCCGUACGGAUCG .
**Result** 0.707

**Query** Now consider GUUCCGUUGGAGUAAUAGUAACGCGUCUCCCUCCUAAGGAGAAGACUGCGGGUUCGAGUCCCGUACGGAACG .
**Result** 0.579
